Assay: Xenograft tumor growth inhibition assay, LNCaP (prostate)
Type: in vivo, Male NSG mice
Settings: male, NSG, in vivo; mouse LNCaP xenograft, oral, dose 30 mg/kg; read-out: AUC, mouse efficacy, Prostate (LNCaP)
Property: AUC (ng·h/mL)

> print(dat)
                         structure.notation  property  measurement.unit  recorded.number
1  Cc1cccc(C)c1Oc1ccc(C(C)(C)O)cc1-c1cn(C)c(=O)c2[nH]c(C(=O)NC(C)(C)C)cc12       AUC           ng·h/mL            12600

====

Assay: Xenograft tumor growth inhibition assay, SKM-1 (AML)
Assay type: in vivo, Female SCID Beige mice
Details: female, SCID Beige, in vivo; mouse SKM-1 xenograft, oral, dose 4.7 mg/kg; read-out: AUC, mouse efficacy, AML (SKM-1)
Property: AUC (ng·h/mL)

> print(dat)
                                   compound  measurement.unit  recorded.number
1  CCNC(=O)c1cc2c(-c3cc(C(C)(C)O)ccc3Oc3c(C)cc(F)cc3C)cn(C)c(=O)c2[nH]1 [Example 35]           ng·h/mL              840

# credit: patent US10633379B2
